- Experimental system: Thioesterase GrsT homolog tycF (Brevibacillus brevis) (UniProt O30412)
- Sequence (whole entry): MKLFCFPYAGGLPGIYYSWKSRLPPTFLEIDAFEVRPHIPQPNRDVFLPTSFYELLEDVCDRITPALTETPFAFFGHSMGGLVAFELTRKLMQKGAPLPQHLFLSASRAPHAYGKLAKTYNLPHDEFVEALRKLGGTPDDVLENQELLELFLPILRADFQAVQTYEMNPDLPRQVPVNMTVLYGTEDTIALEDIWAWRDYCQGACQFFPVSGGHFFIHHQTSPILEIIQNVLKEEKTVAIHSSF
- Experimental details: Apparent kinetic constant (Kcat) for tyrocidine thioesterase amplified from Bacillus brevis (ATCC8185)
Quantity name: k cat (s⁻¹)
Your answer is read as s⁻¹, so omit the unit and give the number.

Consider the following illustrative entries.
Compound smiles: CC(=O)NCCSC(=O)[C@H](CC(C)C)NC(=O)[C@H](CCCN)NC(=O)[C@@H](NC(=O)[C@H](Cc1ccc(O)cc1)NC(=O)[C@H](CCC(N)=O)NC(=O)[C@@H](NC(=O)[C@@H](Cc1ccccc1)NC(=O)[C@H](Cc1ccccc1)NC(=O)[C@@H]1CCCN1C(=O)[C@H](N)Cc1ccccc1)C(C)C)C(C)C
Experimental system: Thioesterase GrsT homolog tycF (Brevibacillus brevis) (UniProt O30412)
Units text: s⁻¹
k cat: 0.12

Compound smiles: CC(=O)NCCSC(=O)[C@H](CC(C)C)NC(=O)[C@H](CCCN)NC(=O)[C@@H](NC(=O)[C@H](Cc1ccc(O)cc1)NC(=O)[C@H](CCC(N)=O)NC(=O)[C@H](CC(N)=O)NC(=O)[C@H](CCCN=C(N)N)NC(=O)[C@H](Cc1ccccc1)NC(=O)[C@@H]1CCCN1C(=O)[C@H](N)Cc1ccccc1)C(C)C
Experimental system: Thioesterase GrsT homolog tycF (Brevibacillus brevis) (UniProt O30412)
Units text: s⁻¹
k cat: 0.2

Continue with the compound presented below.
q: Would you kindly share the measured k cat for `CC(=O)NCCSC(=O)[C@H](CC(C)C)NC(=O)[C@H](CCCN)NC(=O)[C@@H](NC(=O)[C@H](Cc1ccc(O)cc1)NC(=O)[C@H](CCC(N)=O)NC(=O)[C@H](CC(N)=O)NC(=O)[C@@H](NC(=O)[C@H](Cc1ccccc1)NC(=O)[C@@H]1CCCN1C(=O)[C@H](N)Cc1ccccc1)C(C)C)C(C)C` ?
a: 0.45

Source: ChEMBL document CHEMBL1135258
